Please respond with reported IC50 for every item in the list.
Biological target: TBK1 (Homo sapiens (Human), UniProt Q9UHD2)
Sequence (Q9UHD2 whole entry): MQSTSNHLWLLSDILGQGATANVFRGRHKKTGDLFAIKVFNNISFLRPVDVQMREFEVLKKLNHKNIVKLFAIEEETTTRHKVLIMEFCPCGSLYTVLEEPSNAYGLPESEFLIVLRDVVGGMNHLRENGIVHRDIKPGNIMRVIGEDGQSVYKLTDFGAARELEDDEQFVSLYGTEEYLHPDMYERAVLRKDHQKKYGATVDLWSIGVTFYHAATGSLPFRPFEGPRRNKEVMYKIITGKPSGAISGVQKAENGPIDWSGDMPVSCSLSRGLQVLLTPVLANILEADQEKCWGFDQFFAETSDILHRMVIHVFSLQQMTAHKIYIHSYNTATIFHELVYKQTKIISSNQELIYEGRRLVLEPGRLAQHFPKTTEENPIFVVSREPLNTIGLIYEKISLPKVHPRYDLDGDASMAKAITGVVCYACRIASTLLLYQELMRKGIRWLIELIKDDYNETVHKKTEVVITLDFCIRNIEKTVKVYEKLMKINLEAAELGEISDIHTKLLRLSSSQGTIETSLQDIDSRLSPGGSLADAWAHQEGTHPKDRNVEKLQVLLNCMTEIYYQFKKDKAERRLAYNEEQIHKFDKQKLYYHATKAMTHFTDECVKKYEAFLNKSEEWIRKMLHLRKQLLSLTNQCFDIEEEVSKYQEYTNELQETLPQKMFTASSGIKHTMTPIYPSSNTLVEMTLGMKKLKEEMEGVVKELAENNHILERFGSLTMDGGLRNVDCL
Experiment: TR-FRET kinase assay, TBK1
Conditions: read-out: TBK1-IC50; full length recombinant TBK1 2.5 nM, 2x Km ATP, 1 μM peptide, 240 min at 25° C.; geometric mean of minimum four determinations

List reported IC50 for each of these molecules:
1. COc1cc(-c2cc3c(-c4ccc(O[C@H]5CCN(C(=O)CO)C[C@H]5F)c(C#N)c4)ncnc3[nH]2)ccc1N1CCN(C2COC2)CC1
2. Cc1noc(C)c1-c1cc2c(-c3ccc(OC4CCOCC4)c(C#N)c3)ccnc2[nH]1
3. N#Cc1cc(-c2ccnc3[nH]c(-c4ccc(N5CCOCC5)cc4)cc23)ccc1N1CCCC1
4. N#CCC(=O)N1CC[C@@H](Oc2ccc(-c3ncnc4[nH]c(-c5ccc(N6CCOCC6)cc5)cc34)cc2C#N)C1
5. CNC(=O)c1cccc(-c2cc3c(-c4ccc(OC5CCOCC5)c(C#N)c4)ccnc3[nH]2)c1
6. C=C(C)c1ccc(-c2cc3c(-c4ccc(O[C@@H]5CCN(C(=O)CO)C5)c(C#N)c4)ccnc3[nH]2)cc1

Output:
1.05 nM
67.6 nM
7.05 nM
2.26 nM
7.98 nM
11.2 nM

Task: Complete the entry with IC50 for `CNC(=O)c1ccc(-c2cc3c(-c4ccc(OC5CCOCC5)c(C#N)c4)ccnc3[nH]2)cc1`
Output: 3.08 nM

====

Biological target: TBK1 (Homo sapiens (Human), UniProt Q9UHD2)
Experiment: TR-FRET kinase assay, TBK1
Conditions: read-out: TBK1-IC50; full length recombinant TBK1 2.5 nM, 2x Km ATP, 1 μM peptide, 240 min at 25° C.; geometric mean of minimum four determinations
test-readout: log10(IC50) (log10 of the value in nM)
Parameter value (number): base-10 log of IC50 in nM.

Some entries whose results are on file:
1) COc1cc(-c2cc3c(-c4ccc(OC5CCS(=O)(=O)CC5)c(C#N)c4)ncnc3[nH]2)ccc1N1CCN(C2COC2)CC1 = 0.57
2) CN(C)CC(=O)N1CC[C@@H](Oc2ccc(-c3ccnc4[nH]c(-c5ccc(N6CCOCC6)cc5)cc34)cc2C#N)C1 = 1.85
3) N#Cc1cc(-c2ncnc3[nH]c(-c4cnc5c(c4)NCCO5)cc23)ccc1OC1CCOCC1 = 0.64
4) N#Cc1cc(-c2ncnc3[nH]c(-c4cccc(N5CCOCC5)c4)cc23)ccc1CN1CCOCC1 = 1.84
5) N#Cc1cc(-c2ncnc3[nH]c(-c4ccc(N5CCN(C6COC6)CC5)cc4)cc23)ccc1OC1CCOCC1 = -0.06

Can you give me log10(IC50) for all of these, one by one?
1. Cc1ncc(-c2cc3c(-c4ccc(OC5CCOCC5)c(C#N)c4)ncnc3[nH]2)s1
2. CN1CCN(C(=O)c2ccc(-c3cc4c(-c5ccc(OC6CCOCC6)c(C#N)c5)ncnc4[nH]3)cc2)CC1
3. N#Cc1cc(-c2ccnc3[nH]c(-c4ccc(N5CCOCC5)cc4)nc23)ccc1O[C@@H]1CCNC1
4. N#Cc1cc(-c2ncnc3[nH]c(-c4ccc5c(c4)NCCO5)cc23)ccc1OC1CCOCC1
5. CN1CCN(C(=O)c2cc3c(-c4ccc(OC5CCOCC5)c(C#N)c4)ccnc3[nH]2)CC1

Output:
0.90
0.06
1.25
0.71
3.00

====

Target: TBK1 (Homo sapiens (Human))
Test: TR-FRET kinase assay, TBK1
Conditions: read-out: TBK1-IC50; full length recombinant TBK1 2.5 nM, 2x Km ATP, 1 μM peptide, 240 min at 25° C.; geometric mean of minimum four determinations
test-readout: log10 IC50 (log10 of the value in µM)
log10 IC50, µM

Worked cases, answers included:
1. N#Cc1cc(-c2ncnc3[nH]c(-c4ccc(N5CCOCC5)cc4)cc23)ccc1OC1CCN(C(=O)CO)CC1 = -3.30
2. N#Cc1cc(-c2ccnc3[nH]c(-c4ccc(N5CCOCC5)cc4)cc23)ccc1O[C@@H]1CCN(C2COC2)C1 = -1.57
3. N#Cc1cc(-c2ncnc3[nH]c(-c4cccc(N5CCOCC5)c4)nc23)ccc1OC1CCOCC1 = -2.02
4. N#Cc1cc(-c2ccnc3[nH]c(-c4ccc(N5CCOCC5)cc4)nc23)ccc1OC1CCNCC1 = -1.54

Look at each compound and report its log10 IC50.
1. COc1ccc(-c2cc3c(-c4ccc(OC5CCN(C(=O)CO)CC5)c(C#N)c4)ncnc3[nH]2)cn1
2. CN1CCN(c2ccc(-c3nc4c(-c5ccc(OC6CCN(C=O)CC6)c(C#N)c5)ncnc4[nH]3)cc2)CC1
3. N#Cc1cc(-c2ncnc3[nH]c(-c4ccc(N5CCOCC5)cc4)cc23)ccc1OC1CCNCC1
4. N#Cc1cc(-c2ccnc3[nH]c(-c4ccc(N5CCOCC5)cc4)cc23)ccc1OC1COC1

Output:
-2.27
-2.37
-1.51
-2.03

Hi team, please reply with log10 IC50 for each item in this list.
1. N#Cc1cc(-c2ccnc3[nH]c(-c4ccc(N5CCOCC5)cc4)cc23)cnc1OC1CCOCC1
2. N#Cc1cc(-c2ncnc3[nH]c(-c4ccc(N5CCOCC5)cc4)nc23)ccc1OC1CCNCC1
3. CC(O)C(=O)N1CC[C@@H](Oc2ccc(-c3ccnc4[nH]c(-c5ccc(N6CCOCC6)cc5)cc34)cc2C#N)C1 (stereo partly drawn)
4. Cn1cc(-c2nc3c(-c4ccc(OC5CCOCC5)c(C#N)c4)ncnc3[nH]2)cn1
5. CC(C)(O)c1ccc(-c2cc3c(-c4ccc(OC5CCOCC5)c(C#N)c4)ncnc3[nH]2)cc1
6. CC(C)(O)c1ccc(-c2cc3c(-c4ccc(O[C@@H]5CCNC5)c(C#N)c4)ccnc3[nH]2)cc1

Output:
-1.83
-1.43
-2.18
-1.91
-3.09
-1.37

Task: Provide TBK1 (Homo sapiens (Human)) log10 IC50 reading for `N#Cc1cc(-c2ccnc3[nH]c(-c4cc[nH]c(=O)c4)cc23)ccc1OC1CCOCC1` .
Output: -1.71

====

Biological target: IKKε (Homo sapiens (Human), UniProt Q14164)
Sequence (Q14164 whole entry): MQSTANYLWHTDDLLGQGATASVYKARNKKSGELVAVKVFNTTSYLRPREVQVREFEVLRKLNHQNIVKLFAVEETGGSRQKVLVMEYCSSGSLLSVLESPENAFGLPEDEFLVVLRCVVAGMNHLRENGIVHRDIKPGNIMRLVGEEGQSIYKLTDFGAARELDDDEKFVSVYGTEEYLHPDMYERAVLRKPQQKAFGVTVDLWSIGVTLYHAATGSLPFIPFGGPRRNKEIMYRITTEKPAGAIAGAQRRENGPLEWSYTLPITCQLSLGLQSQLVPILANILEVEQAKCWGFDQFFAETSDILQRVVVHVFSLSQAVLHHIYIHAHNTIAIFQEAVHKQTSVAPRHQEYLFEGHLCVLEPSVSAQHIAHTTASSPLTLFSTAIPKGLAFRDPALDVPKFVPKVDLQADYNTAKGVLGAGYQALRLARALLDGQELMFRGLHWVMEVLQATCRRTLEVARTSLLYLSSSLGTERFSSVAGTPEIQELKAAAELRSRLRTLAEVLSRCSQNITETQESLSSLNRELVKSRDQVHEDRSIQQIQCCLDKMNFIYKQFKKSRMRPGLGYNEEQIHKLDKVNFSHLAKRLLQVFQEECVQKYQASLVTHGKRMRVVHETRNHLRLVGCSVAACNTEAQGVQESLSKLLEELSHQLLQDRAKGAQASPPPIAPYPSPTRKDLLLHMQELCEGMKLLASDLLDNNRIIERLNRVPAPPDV
Experiment: TR-FRET kinase assay, IKKε
Conditions: full length recombinant IKKε 0.3 nM, 2x Km ATP, 1 μM peptide, 240 min at 25° C.; geometric mean of minimum four determinations
IC50 vs 0.09 µM: less than gives 1; not less than gives -1.

Reference set, count: 6
1. N#Cc1cc(-c2ncnc3[nH]c(-c4ccc(N5CCOCC5)cc4)cc23)ccc1CN1CCOCC1 [Example 112] = 1
2. N#CCC(=O)N1CCN(c2ccc(-c3cc4c(-c5ccc(OC6CCOCC6)c(C#N)c5)ccnc4[nH]3)cc2)CC1 [Example 57] = 1
3. N#Cc1cc(-c2ccnc3[nH]c(-c4ccc(N5CCOCC5)cc4)cc23)ccc1OC1CCCOC1 (stereo not shown) [Example 239] = -1
4. N#Cc1cc(-c2ccnc3[nH]c(C4CC4)cc23)ccc1OC1CCOCC1 [Example 50] = -1
5. N#Cc1cc(-c2ccnc3[nH]c(-c4cnn(C5CNC5)c4)cc23)ccc1OC1CCOCC1 [Example 9] = 1
6. COc1ccc(C#N)cc1-c1ncnc2[nH]c(-c3ccc(N4CCOCC4)cc3)cc12 [Example 133] = -1

# input for lookup
Task: Could you please tell me whether IC50 recorded for O=C1NCc2cc(-c3ncnc4[nH]c(-c5ccc(N6CCOCC6)cc5)cc34)ccc21 [Example 221] is less than 0.09 µM?
Output: -1

====

Molecular target: IKKε (Homo sapiens (Human), UniProt Q14164)
Assay: TR-FRET kinase assay, IKKε
Conditions: full length recombinant IKKε 0.3 nM, 2x Km ATP, 1 μM peptide, 240 min at 25° C.; geometric mean of minimum four determinations
test-readout: IC50
The reply must contain the numeric value and, after it, the unit.

1. CS(=O)(=O)N1CCN(c2ccc(-c3cc4c(-c5ccc(OC6CCOCC6)c(C#N)c5)ncnc4[nH]3)cc2)CC1 [Example 215] = 3.15 nM
2. N#Cc1cc(-c2ncnc3[nH]c(-c4cccc(N5CCOCC5)c4)nc23)ccc1OC1CCOCC1 [Example 211] = 25.3 nM
3. Cn1cc(-c2nc3c(-c4ccc(OC5CCOCC5)c(C#N)c4)ccnc3[nH]2)cn1 [Example 307] = 21.3 nM
4. N#Cc1cc(-c2ncnc3[nH]c(-c4ccc(N5CCN(C6COC6)CC5)cc4)cc23)ccc1OC1CCN(C(=O)CO)CC1 [Example 157] = 1.43 nM
5. N#Cc1cc(-c2ncnc3[nH]c(-c4ccc(N5CCOCC5)cc4)cc23)ccc1OC1CCNCC1 [Example 218] = 140 nM

Look up IC50 for the entries below, preserving their order.
1. N#Cc1cc(-c2ccnc3[nH]c(-c4ccc(N5CCOCC5)cc4)cc23)ccc1OC1COC1 [Example 235]
2. N#Cc1cc(-c2ncnc3[nH]c(-c4cccc(C(N)=O)c4)cc23)ccc1OC1CCOCC1 [Example 171]

Output:
1: 103 nM; 2: 10.6 nM
